Exercise: for every item that follows, state its recorded cytotoxicity at 10 µM.
test_summary: Toxicity liver stage against HepG2, at 10uM
Assay type: cell-based
Design: test concentration 10 uM, cell line HepG2-A16-CD81EGFP
measurement_conditions: human, HepG2-A16-CD81EGFP cells; read-out: INHIBITION
Provide the reading as a plain figure in %.

For reference, reported cytotoxicity at 10 µM for CCS(=O)(=O)N1CCC2(C1)C(=O)N(C)CCN2Cc1ccncc1 (stereo not drawn) stands at -4.78

For reference, reported cytotoxicity at 10 µM for `COCCN(Cc1ccccc1)c1cc(C)ncn1` stands at 7.41

For reference, reported cytotoxicity at 10 µM for `Cc1ccc(NC(=O)Cc2cnc3n(C)c(=O)[nH]c(=O)n23)cc1` stands at 8.24

For reference, reported cytotoxicity at 10 µM for `CN1CCC(c2cccc(C(=O)N(C)C)n2)CC1` stands at 4.53

For reference, reported cytotoxicity at 10 µM for `O=S(=O)(NCC1(c2cccs2)CCOCC1)c1ccc2c(c1)OCCO2` stands at -1.64

For reference, reported cytotoxicity at 10 µM for `CC(C)Cc1ncc2c(n1)CN(C(=O)c1ccc(Cn3ccnc3)o1)C2` stands at 3.09

For reference, reported cytotoxicity at 10 µM for `Cn1ccc(-c2cc(C(=O)N3CCC(C(N)=O)CC3)c3ccccn23)n1` stands at -105

For reference, reported cytotoxicity at 10 µM for `Clc1ccc(CN2CCc3c(ncn3C3CC3)C2)c2ncccc12` stands at 14

For reference, reported cytotoxicity at 10 µM for `Cc1nnc(NC(=O)CCc2c(C)nn3cnnc3c2C)s1` stands at -1.7

For reference, reported cytotoxicity at 10 µM for O=C1CC(C(=O)N2CCc3sccc3C2)CN1Cc1cccnc1 (stereo not drawn) stands at -1.18

For reference, reported cytotoxicity at 10 µM for `CCOC(=O)c1sc2ccsc2c1CNC(=O)COC` stands at 1.51

For reference, reported cytotoxicity at 10 µM for `CC(=O)NCC[C@H]1CC(C)(C)Oc2ccccc21` stands at -0.363

For reference, reported cytotoxicity at 10 µM for `CCN(CC(=O)NC)C(=O)c1sc(Cc2ccccc2)nc1C` stands at -6.37

For reference, reported cytotoxicity at 10 µM for `CN(C)CCN(Cc1ccc(Cl)cc1)C(=O)c1cnccn1` stands at -1.85

For reference, reported cytotoxicity at 10 µM for `CCN(c1ccc(C(=O)N2CCC(C(N)=O)CC2)cc1)S(=O)(=O)CC` stands at 11.6

For reference, reported cytotoxicity at 10 µM for Cc1ccc(CCN2CCC(N(C)Cc3noc(C4CC4)n3)C2)cc1 (stereo not drawn) stands at -8.31

For reference, reported cytotoxicity at 10 µM for CC(=O)N1CCN(CCNC(=O)NC(C)Cn2ccnc2)CC1 (stereo not drawn) stands at 5.74

For reference, reported cytotoxicity at 10 µM for Cc1nn(C)c2ncc(S(=O)(=O)N3CCCC(C)CC3)cc12 (stereo not drawn) stands at 2.6

For reference, reported cytotoxicity at 10 µM for `Cc1ccc(CN2CC3(CCN(C(=O)c4cscn4)C3)C2)s1` stands at -10.3

For reference, reported cytotoxicity at 10 µM for Cc1cccc(Oc2ccccc2CNC(=O)C2CCC(=O)NC2)c1 (stereo not drawn) stands at 10.6

For reference, reported cytotoxicity at 10 µM for `CNC(=O)[C@H]1CC[C@@H]2[C@@H](CCN2CCOCc2ccccc2)O1` stands at -109

For reference, reported cytotoxicity at 10 µM for CC1c2ccc(F)cc2CCN1C(=O)c1[nH]c(=O)[nH]c(=O)c1N (stereo not drawn) stands at -5.22

For reference, reported cytotoxicity at 10 µM for `Cc1ccc2[nH]c(C(=O)N3CCC4(CC3)C(=O)NCCN4C)nc2c1` stands at 1.43

For reference, reported cytotoxicity at 10 µM for CC(C)NC(=O)CC1COC2(CCN(Cc3ccco3)CC2)C1 (stereo not drawn) stands at -0.567

For reference, reported cytotoxicity at 10 µM for CC(=O)N1CCc2nnc(C3CCCN3CC3CCCCC3)n2CC1 (stereo not drawn) stands at -1.54

For reference, reported cytotoxicity at 10 µM for CC(=O)N1N=C(c2ccco2)OC1C(=O)NCCc1ccc(O)cc1 (stereo not drawn) stands at -1.19

For reference, reported cytotoxicity at 10 µM for `Cc1cc(NC(=O)NCc2nncn2C)ccc1OC(C)C` stands at 6.23

For reference, reported cytotoxicity at 10 µM for CCOC(C)c1noc(CN2CCN(c3ccncc3)CC2)n1 (stereo not drawn) stands at -10.6

For reference, reported cytotoxicity at 10 µM for `CN(C)CCN(C)S(=O)(=O)CC1CCOCC1` stands at -5.38

For reference, reported cytotoxicity at 10 µM for CCC(O)CN1CCN(C(=O)c2cc(Cl)cc3cccnc23)CC1 (stereo not drawn) stands at -13.7

For reference, reported cytotoxicity at 10 µM for CC(Cn1cccn1)NS(=O)(=O)Cc1ccc(F)cc1 (stereo not drawn) stands at 7.28

For reference, reported cytotoxicity at 10 µM for `CCN(CC)c1ccc2ccc(C(=O)NC3CC3)cn12` stands at -2.6

For reference, reported cytotoxicity at 10 µM for `Cc1ccc(O)c(CN2CCn3nc(C(=O)N4CCCC4)cc3C2)n1` stands at 1.5

For reference, reported cytotoxicity at 10 µM for `CC(C)(C)n1cc(NCc2cscn2)cn1` stands at -6.08

For reference, reported cytotoxicity at 10 µM for `Cc1noc(C)c1CN1CCC2(CC1)CC(Oc1cccnc1)C2` stands at 23.2

For reference, reported cytotoxicity at 10 µM for `Cc1ccoc1C(=O)N1CC[C@@]2(C[C@H](NS(C)(=O)=O)CCO2)C1` stands at 7.43

For reference, reported cytotoxicity at 10 µM for `CO[C@@H]1CCN(c2ncc(F)cn2)[C@@H]2CN(Cc3cccnc3)C[C@@H]21` stands at 11.8

For reference, reported cytotoxicity at 10 µM for `O=C(NCc1csc(Br)c1)c1cnccn1` stands at -23.3

For reference, reported cytotoxicity at 10 µM for `O=C(CCNC(=O)c1ccoc1)Nc1ccccc1F` stands at -8.38

For reference, reported cytotoxicity at 10 µM for CNS(=O)(=O)CCNCC1(O)CCCN(CCC2CCCCC2)C1=O (stereo not drawn) stands at 0.28

For reference, reported cytotoxicity at 10 µM for Cc1ncncc1C(=O)N1CCCC(n2cccn2)C1 (stereo not drawn) stands at -4.77

For reference, reported cytotoxicity at 10 µM for `Cc1nnc([C@]23COC[C@H]2CN(Cc2cnn(C)c2)C3)o1` stands at -3.77

For reference, reported cytotoxicity at 10 µM for `O=C(NC1CCCCC1)[C@H]1CNC[C@@H](COc2cccnc2)C1` stands at -8.98

For reference, reported cytotoxicity at 10 µM for Cc1nccn1Cc1nnc(C2CCCN(c3ncccc3F)C2)n1C (stereo not drawn) stands at -4.93

For reference, reported cytotoxicity at 10 µM for COCCC(=O)N1CCCC([C@@H]2C[C@H](C(F)F)n3ncnc3N2)C1 (stereo partly drawn) stands at -1.28

For reference, reported cytotoxicity at 10 µM for CC(NC(N)=O)C(=O)Nc1ccc(OCc2cccc(F)c2)c(F)c1 (stereo not drawn) stands at -12.3

For reference, reported cytotoxicity at 10 µM for `Cc1cc(N2CCOCC2)nc(N(C)CCO)c1C#N` stands at 2.17

For reference, reported cytotoxicity at 10 µM for COCC(c1cccc(C(F)(F)F)c1)N(C)C(=O)c1ccccn1 (stereo not drawn) stands at -12

The measurements presented in this section are drawn from ChEMBL document CHEMBL4513216.
